tested.target: hCLEC12A-His fusion protein (human) (UniProt Q5QGZ9)
Sequence (Q5QGZ9 65-265 limits assumed): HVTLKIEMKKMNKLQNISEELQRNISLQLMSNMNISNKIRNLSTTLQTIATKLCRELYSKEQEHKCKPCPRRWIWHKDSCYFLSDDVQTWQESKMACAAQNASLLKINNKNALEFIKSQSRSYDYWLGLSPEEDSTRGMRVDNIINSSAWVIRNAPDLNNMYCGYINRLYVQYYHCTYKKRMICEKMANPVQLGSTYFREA
assay.comment: SPR screening, semi-purified protein
experimental.endpoint: kon (M⁻¹ s⁻¹)
# unit: M⁻¹ s⁻¹ | format: bare number

[Q] Recorded kon for AB0195 (bispecific antibody, part only; not given: Fc and unrelated binding arm, not shown: another chain or arm of the molecule; a dimerising Fc or GST) scFv: EVQLVESGGGVVQPGGSLRLSCAASGFTFNAFGMHWVRQAPGKCLEWVAFISSGSTSIYYANTVKGRFTISRDNSKNTLYLQMNSLRAEDTAVYYCARDGYPTGGAMDYWGQGTSVTVSSGGGGSGGGGSGGGGSGGGGSDIKMTQSPSSLSASVGDRVTITCKASQDIYNYLSWFQQKPGKAPKPLIYRANILVSGVPSRFSGSGSGQDYTLTISSLQPEDIATYYCLQFDAFPFTFGCGTKLEIK , please?
[A] 766000
